System: E. faecalis #32
Experimental Protocol: Broth microdilution MIC, Example 7 (NCL analogues), Table 42
Type: cell-based, Enterococcus faecalis
Condition Notes: E. faecalis #32, 24 hours
Assay Readout: MIC (μg/ml) at 24 hours E. faecalis #32

> print(dat)
                                   molecule                            assay.readout  result.value
1  OC/C(=N\Nc1cc(N/N=C(\CO)c2ccc(Cl)cc2)ncn1)c1ccc(Cl)cc1 [NCL 180]  MIC (μg/ml) at 24 hours E. faecalis #32      64 µg/mL

// each molecule listed below needs its MIC (μg/ml) at 24 hours E. faecalis #32
1. Cl.Clc1ccc(/C=N/Nc2cc(N/N=C/c3ccc(Cl)cc3)ncn2)cc1 [NCL 187]
2. C/C(=N\NC(=N)N)c1ccc(Cl)cc1.Cl [NCL 191]
3. Cl.N=C(N)NN=C(C(=O)O)c1ccccc1 [NCL 192]
4. Clc1ccc(/C=N/Nc2cc(N/N=C/c3ccc(Cl)cc3)ncn2)cc1 [NCL 181]

Result:
>64 µg/mL
>64 µg/mL
>64 µg/mL
>64 µg/mL

###

Tested on: S. aureus isolates (HA-MRSA, CA-MRSA, methicillin-susceptible staphylococci)
Experimental Protocol: Kirby-Bauer disc diffusion resistotyping, Example 4
Assay type: cell-based, Staphylococcus aureus
Condition Notes: Methicillin-susceptible staphylococci (n = 10)
Assay Readout: isolates resistant (Kirby-Bauer disc diffusion) (%)
Give bare numbers, in %.

Molecule	Result Value
Cc1onc(-c2ccccc2)c1C(=O)N[C@@H]1C(=O)N2[C@@H]1SC(C)(C)[C@@H]2C(=O)O	0.00
CC1(C)S[C@@H]2[C@H](NC(=O)Cc3ccccc3)C(=O)N2[C@H]1C(=O)O	50.00
CC1=C(C(=O)O)N2C(=O)[C@@H](NC(=O)[C@H](N)c3ccccc3)[C@H]2SC1	10.00
CN(C)[C@@H]1C(O)=C(C(N)=O)C(=O)[C@@]2(O)C(O)=C3C(=O)c4c(O)cccc4[C@@](C)(O)[C@H]3C[C@@H]12	0.00
CO[C@@]1(NC(=O)C2SC(=C(C(N)=O)C(=O)O)S2)C(=O)N2C(C(=O)O)=C(CSc3nnnn3C)CS[C@@H]21 (stereo partly drawn)	0.00
CCC[C@@H]1C[C@@H](C(=O)N[C@@H]([C@H]2O[C@H](SC)[C@H](O)[C@@H](O)[C@H]2O)[C@H](C)Cl)N(C)C1	30.00
CC[C@H]1OC(=O)[C@H](C)[C@@H](O[C@H]2C[C@@](C)(OC)[C@@H](O)[C@H](C)O2)[C@H](C)[C@@H](O[C@@H]2O[C@H](C)C[C@H](N(C)C)[C@H]2O)[C@](C)(O)C[C@@H](C)C(=O)[C@H](C)[C@@H](O)[C@]1(C)O	40.00
CN[C@H](CC(C)C)C(=O)N[C@H]1C(=O)N[C@@H](CC(N)=O)C(=O)N[C@H]2C(=O)N[C@H]3C(=O)N[C@H](C(=O)N[C@H](C(=O)O)c4cc(O)cc(O)c4-c4cc3ccc4O)[C@H](O)c3ccc(c(Cl)c3)Oc3cc2cc(c3O[C@@H]2O[C@H](CO)[C@@H](O)[C@H](O)[C@H]2O[C@H]2C[C@](C)(N)[C@H](O)[C@H](C)O2)Oc2ccc(cc2Cl)[C@H]1O	0.00

Next, consider the following molecule.
Ask: Given the molecule CO[C@H]1/C=C/O[C@@]2(C)Oc3c(C)c(O)c4c(O)c(c(/C=N/N5CCN(C)CC5)c(O)c4c3C2=O)NC(=O)/C(C)=C\C=C\[C@H](C)[C@H](O)[C@@H](C)[C@@H](O)[C@@H](C)[C@H](OC(C)=O)[C@@H]1C , what is its reported isolates resistant (Kirby-Bauer disc diffusion)?
Result: 0.00

###

Tested on: S. aureus isolates (HA-MRSA, CA-MRSA, methicillin-susceptible staphylococci)
Experimental Protocol: Kirby-Bauer disc diffusion resistotyping, Example 4
Type: cell-based, Staphylococcus aureus
Condition Notes: CA-MRSA (n = 10)
Provide the reported isolates resistant (Kirby-Bauer disc diffusion) of each item.
Write down the value, and be sure its unit follows.

Solved cases below.
Smiles Structure	Test System	Result Value
CN[C@H](CC(C)C)C(=O)N[C@H]1C(=O)N[C@@H](CC(N)=O)C(=O)N[C@H]2C(=O)N[C@H]3C(=O)N[C@H](C(=O)N[C@H](C(=O)O)c4cc(O)cc(O)c4-c4cc3ccc4O)[C@H](O)c3ccc(c(Cl)c3)Oc3cc2cc(c3O[C@@H]2O[C@H](CO)[C@@H](O)[C@H](O)[C@H]2O[C@H]2C[C@](C)(N)[C@H](O)[C@H](C)O2)Oc2ccc(cc2Cl)[C@H]1O	S. aureus isolates (HA-MRSA, CA-MRSA, methicillin-susceptible staphylococci)	0.00%
CC[C@H]1OC(=O)[C@H](C)[C@@H](O[C@H]2C[C@@](C)(OC)[C@@H](O)[C@H](C)O2)[C@H](C)[C@@H](O[C@@H]2O[C@H](C)C[C@H](N(C)C)[C@H]2O)[C@](C)(O)C[C@@H](C)C(=O)[C@H](C)[C@@H](O)[C@]1(C)O	S. aureus isolates (HA-MRSA, CA-MRSA, methicillin-susceptible staphylococci)	100.00%
Cc1onc(-c2ccccc2)c1C(=O)N[C@@H]1C(=O)N2[C@@H]1SC(C)(C)[C@@H]2C(=O)O	S. aureus isolates (HA-MRSA, CA-MRSA, methicillin-susceptible staphylococci)	10.00%

Ask: Entry CC1(C)S[C@@H]2[C@H](NC(=O)Cc3ccccc3)C(=O)N2[C@H]1C(=O)O has what isolates resistant (Kirby-Bauer disc diffusion)?
Result: 100.00%

###

System: VRE
Experimental Protocol: Broth microdilution MIC, Example 7 (NCL812 and analogues)
Format: cell-based, Enterococcus spp.
Condition Notes: VRE 1; 24 hours; duplicate lines per compound
Assay Readout: MIC (μg/ml) at 24 hours, VRE 1 (µg/mL)
One number for each entry, in µg/mL.

Known results for compounds:
> print(dat)
                           smiles.structure  unit.abbreviation  result.value
1  Cl.N=C(NN=Cc1ccc2[nH]ccc2c1)NN=Cc1ccc2[nH]ccc2c1              µg/mL            16
2  Cl.N=C(NN=Cc1ccc(SC(F)(F)F)cc1)NN=Cc1ccc(SC(F)(F)F)cc1              µg/mL             8
3  CCCc1ccc(C=NNC(=N)NN=Cc2ccc(CCC)cc2)cc1.Cl              µg/mL             8

Please turn your attention to the following entry.
Ask: Dear colleague, I am looking for the recorded MIC (μg/ml) at 24 hours, VRE 1 of the following compound: COc1cc(/C=N/NC(=N)N/N=C/c2ccc(O)c(OC)c2)ccc1O.Cl
Result: 64

###

Tested on: MRSA
Experimental Protocol: Broth microdilution MIC, Example 7 (NCL812 and analogues)
Type: cell-based, Staphylococcus aureus
Condition Notes: Staphylococcus aureus, MRSA, 24 h, read-out: MIC (μg/ml) at 24 hours, MRSA 1, MRSA 1; 24 hours; duplicate lines per compound
Assay Readout: MIC

Below are worked cases with known answers.
> print(dat)
                                   molecule  assay.readout  result.value
1  C/C(=N\NC(=N)N/N=C/c1ccc(Cl)cc1)c1ccc(C(F)(F)F)cc1.Cl [NCL080]            MIC       4 µg/mL
2  Cl.N=C(N/N=C/c1ccc(Cl)cc1)N/N=C/c1ccc(Cl)cc1F [NCL084]            MIC       2 µg/mL
3  Cl.N=C(N/N=C/c1cc(O)c(O)c(O)c1)N/N=C/c1cc(O)c(O)c(O)c1 [NCL097]            MIC     128 µg/mL
4  Cl.N=C(N/N=C/c1ccc(Cl)cc1)N/N=C/c1ccc(C(F)(F)F)cc1F [NCL078]            MIC       4 µg/mL
5  Cl.N=C(N/N=C/c1ccc(F)cc1)N/N=C/c1ccc(Cl)cc1 [NCL079]            MIC       4 µg/mL

Note: attention shifts to another entry.
Ask: Consider the molecule C/C(=N\NC(=N)N/N=C(\C)c1ccc(C(F)(F)F)cc1)c1ccc(Cl)cc1.Cl [NCL089] and give its measured MIC.
Result: 4 µg/mL

###

Give measured MIC for each item. Keep answers brief.
Test system: VRE
Experimental Protocol: Broth microdilution MIC, Example 7 (NCL812 and analogues)
Assay type: cell-based, Enterococcus spp.
Condition Notes: Enterococcus, VRE, bioassay ranking, VRE; read-out: VRE
Description: Minimum inhibitory concentrations (μg/ml) were determined using the broth microdilution method recommended by the Clinical and Laboratory Standards Institute (CLSI). MIC breakpoints were determined by visual assessment and then confirmed using an ELISA plate reader, measuring absorbance levels at 600 nm. […] The purity of the isolates was closely monitored during testing by subculturing the prepared bacterial inoculum onto SBA (sheep blood agar). […]
Give bare numbers, in µg/mL.

Study these solved cases before continuing.
> print(dat)
                           smiles.structure  test.system  assay.readout  result.value
1  C/C(=N\NC(=N)N/N=C(\C)c1ccc(C)cc1)c1ccc(C)cc1.Cl          VRE            MIC             3
2  Cl.N=C(N/N=C/c1ccc(Cl)cc1)N/N=C/c1ccc(C(F)(F)F)cc1F          VRE            MIC             3
3  Cl.N=C(NN=Cc1ccc(Cl)cc1N)NN=Cc1ccc(Cl)cc1N          VRE            MIC           2.5
4  Cl.N=C(N/N=C/c1ccc(F)cc1)N/N=C/c1ccc(Cl)cc1          VRE            MIC             3

Ask: Lookup: MIC / VRE / Cc1ccc(/C=N/Nc2cc(N/N=C/c3ccc(C)cc3)nc(N)n2)cc1
Result: 3.5

From: patent US10253002B2
